# Assayed System: HCV NS5B (Hepatitis C virus genotype 1b)
# Construct: fusion protein, of which the carboxyl terminal 21 amino acids were removed to enhance its solubility; His tag (GSHHHHHH); made in house; host or cells: E. coli
# Experiment: Inhibition of viral RNA-dependent RNA polymerase (RdRp), in vitro biochemical assay
# Parameters: species or system HCV genotype 1b virus (BB7)
# Test Settings: HCV NS5B RdRp, BB7; reported as range class; read-out: HCV pol-BB7 IC50
Readout Label: IC50

Consider the reported IC50 for these molecules:
Query block: Report IC50 for CNC(=O)c1c(-c2ccc(F)cc2)oc2cc(-c3cc(C)n(C)n3)c(OC(C)C)cc12 [Example 248]
Result block: 500 to 5000 nM

Query block: Using known records, supply IC50 for CNC(=O)c1c(-c2ccc(F)cc2)oc2cc(N3CCOCC3)c(OC(F)F)cc12 [Example 172]
Result block: ≤ 500 nM

More entries:
Query block: Look up and report measured IC50 for this entry: CNC(=O)c1c(-c2ccc(F)cc2)oc2cc(S(=O)(=O)N3CCC(O)C3)c(OC(C)C)cc12 (centres unmarked) [Example 176]
Result block: ≤ 500 nM

Query block: State its IC50: CNC(=O)c1c(-c2ccc(F)cc2)oc2cc(C(=O)O)c(OC(C)C)cc12 [Example 187]
Result block: 5000 to 30000 nM

Query block: Identify IC50 associated with the molecule CNC(=O)c1c(-c2ccc(F)cc2)oc2cc(-c3cc(COC)no3)c(OC(C)C)cc12 [Example 242]
Result block: 500 to 5000 nM

Query block: Please report the measured IC50 for CNC(=O)c1c(-c2ccc(F)cc2)oc2cc(-c3ncc[nH]3)c(OC(C)C)cc12 [Example 244]
Result block: ≤ 500 nM

Query block: Give a short answer stating reported IC50 for CNC(=O)c1c(-c2ccc(F)cc2)oc2cc(N(C(C)C)S(C)(=O)=O)c(OC)cc12 [Example 221] .
Result block: ≤ 500 nM

Query block: Indicate the recorded IC50 value for this molecule: CNC(=O)c1c(-c2ccc(F)cc2)oc2cc(N3CCSCC3)c(OC(C)C)cc12 [Example 186]
Result block: ≤ 500 nM

Query block: Assign IC50 to the following record: CNC(=O)c1c(-c2ccc(F)cc2)oc2cc(C(C)O)c(OC(C)C)cc12 (centres unmarked) [Example 222]
Result block: ≤ 500 nM

Query block: Complete the entry with IC50 for CNC(=O)c1c(-c2ccc(F)cc2)oc2cc(-c3ccc(S(C)(=O)=O)cc3)c(OC(C)C)cc12 [Example 179]
Result block: ≤ 500 nM

Query block: Give recorded IC50. CNC(=O)c1c(-c2ccc(F)cc2)oc2cc(-c3ccnn3C)c(OC(C)C)cc12 [Example 231]
Result block: ≤ 500 nM

Query block: Please look at this molecule and report its IC50: CNC(=O)c1c(-c2ccc(F)cc2)oc2cc(-c3ccc[nH]3)c(OC(C)C)cc12 [Example 220]
Result block: ≤ 500 nM
